assay: solubility pre-screen in an aqueous, acidic milieu; assay type: physicochemical; also: test concentration or dose not given here
Where a SMILES comes first, the peptide text is derived from it.
Recorded endpoint: Solubility test

The examples below pair each entry with its known result.
# Compound, Solubility test
records = [
    ("CC[C@H](C)[C@H](N)C(=O)N[C@@H](CC(=O)O)C(=O)N[C@@H](CC(C)C)C(=O)N[C@@H](CCCCN)C(=O)NCC(=O)N[C@@H](CCC(=O)O)C(=O)N[C@@H](CC(C)C)C(=O)N[C@@H](CC(=O)O)C(=O)N[C@@H](CCSC)C(=O)N[C@@H](CCCNC(=N)N)C(=O)N[C@@H](CC(N)=O)C(=O)N[C@H](C(=O)N[C@@H](CCC(N)=O)C(=O)N[C@H](C(=O)N[C@@H](CCCNC(=N)N)C(=O)O)C(C)C)[C@@H](C)CC [HDM32A] (H-IDLKGELDMRNIQVR-OH)", "YES"),
    ("CC(C)[C@H](NC(=O)CNC(=O)[C@H](CC(=O)O)NC(=O)[C@H](CCC(=O)O)NC(=O)[C@H](CO)NC(=O)[C@H](CCCCN)NC(=O)[C@@H](NC(=O)[C@H](CC(N)=O)NC(=O)[C@H](C)N)C(C)C)C(=O)N[C@H](C(=O)N[C@@H](CCCCN)C(=O)N[C@@H](C)C(=O)N[C@@H](Cc1c[nH]cn1)C(=O)O)C(C)C [HDM37] (H-ANVKSEDGVVKAH-OH)", "YES"),
    ("CC[C@H](C)[C@H](NC(=O)CNC(=O)[C@@H](NC(=O)[C@H](Cc1c[nH]cn1)NC(=O)[C@H](CCCNC(=N)N)NC(=O)[C@H](CCC(=O)O)NC(=O)[C@H](Cc1ccccc1)NC(=O)[C@H](CCCCN)NC(=O)[C@@H](N)CC(=O)O)[C@@H](C)CC)C(=O)N[C@H](C(=O)N[C@@H](CC(=O)O)C(=O)N[C@@H](CC(C)C)C(=O)N[C@@H](CCCCN)C(=O)O)[C@@H](C)CC [HDM30] (H-DKFERHIGIIDLK-OH; N-terminus and C-terminus assumed)", "YES"),
    ("CC[C@H](C)[C@H](NC(=O)[C@@H](NC(=O)[C@@H](N)CS)[C@@H](C)CC)C(=O)N[C@@H](Cc1c[nH]cn1)C(=O)N[C@@H](CCCNC(=N)N)C(=O)NCC(=O)N[C@@H](CCCCN)C(=O)N1CCC[C@H]1C(=O)N[C@@H](Cc1ccccc1)C(=O)N[C@@H](CCC(N)=O)C(=O)N[C@@H](CC(C)C)C(=O)N[C@@H](CCC(=O)O)C(=O)N[C@@H](C)C(=O)O [HDM20] (H-CIIHRGKPFQLEA-OH; N-terminus and C-terminus assumed)", "YES"),
    ("CSCC[C@H](NC(=O)[C@H](CO)NC(=O)[C@@H](NC(=O)[C@@H](NC(=O)[C@H](CC(=O)O)NC(=O)[C@@H](N)CC(=O)O)C(C)C)C(C)C)C(=O)N[C@@H](CCC(=O)O)C(=O)N[C@@H](Cc1ccc(O)cc1)C(=O)N[C@@H](CC(=O)O)C(=O)N[C@@H](CC(C)C)C(=O)N[C@@H](C)C(=O)N[C@@H](Cc1ccc(O)cc1)C(=O)N[C@@H](CCCCN)C(=O)O [HDM39] (H-DDVVSMEYDLAYK-OH; N-terminus and C-terminus assumed)", "NO*"),
]

Prompt line: # Solubility test lookup, item CC[C@H](C)[C@H](NC(=O)[C@@H]1CCCN1C(=O)[C@@H](NC(=O)[C@@H](NC(=O)[C@@H](NC(=O)[C@@H](N)CCCNC(=N)N)[C@@H](C)O)C(C)C)[C@@H](C)O)C(=O)N[C@@H](CCCNC(=N)N)C(=O)N[C@@H](CCSC)C(=O)N[C@@H](CCC(N)=O)C(=O)NCC(=O)NCC(=O)N[C@@H](CS)C(=O)NCC(=O)O [HDM02] (H-RTVTPIRMQGGCG-OH; N-terminus and C-terminus assumed)
Response line: YES

Prompt line: Look at this compound and give its reported Solubility test. CC[C@H](C)[C@H](NC(=O)[C@@H](NC(=O)[C@H](C)NC(=O)[C@@H](NC(=O)[C@H](C)NC(=O)[C@H](CO)NC(=O)[C@H](Cc1c[nH]cn1)NC(=O)[C@@H](NC(=O)[C@H](CCC(N)=O)NC(=O)[C@H](C)NC(=O)[C@H](CC(C)C)NC(=O)[C@H](C)NC(=O)[C@H](CCC(=O)O)NC(=O)[C@@H](N)CCCNC(=N)N)[C@@H](C)O)[C@@H](C)CC)C(C)C)C(=O)O [HDM09A] (H-REALAQTHSAIAVI-OH; N-terminus and C-terminus assumed)
Response line: YES

Where do these numbers come from? They come from patent US9340580B2.
